System: stable HCV 2a JFH-1 Rluc replicon cells (L31 present in NS5A)
test details: Renilla luciferase HCV replicon reporter assay, genotype 2a JFH-1
Assay type: cell-based
assay setup: Hepatitis C virus, read-out: 2a JFH (nM), genotype 2a JFH-1 replicon (L31 in NS5A), stable cells
EC50 values for the compounds below.
endpoint label: EC50 (nM)

line notation	measurement
COC(=O)N[C@@H](C)C(=O)N1[C@@H](C)CC[C@H]1c1nc2ccc3cc4c(cc3c2[nH]1)OCc1cc(-c2cnc([C@@H]3CC[C@H](C)N3C(=O)[C@@H](NC(=O)OC)C(C)C)[nH]2)ccc1-4	0.014
COC(=O)N[C@H](C(=O)N1[C@@H](C)CC[C@H]1c1ncc(-c2ccc3c(c2)COc2cc4c(ccc5nc([C@@H]6CC[C@H](C)N6C(=O)[C@@H](NC(=O)OC)C6CCCCC6)[nH]c54)cc2-3)[nH]1)C(C)C	0.017
[2H]C([2H])([2H])C([2H])(C([2H])([2H])[2H])[C@]([2H])(NC(=O)OC)C(=O)N1[C@@H](C)CC[C@H]1c1ncc(-c2ccc3c(c2)COc2cc4c(ccc5nc([C@@H]6CC[C@H](C)N6C(=O)[C@@]([2H])(NC(=O)OC)C([2H])(C([2H])([2H])[2H])C([2H])([2H])[2H])[nH]c54)cc2-3)[nH]1	0.011
COC(=O)N[C@H](C(=O)N1[C@@H](C)CC[C@H]1c1ncc(-c2ccc3c(c2)COc2cc4c(ccc5nc([C@@H]6CC[C@H](C)N6C(=O)[C@@H](NC(=O)OC)[C@H](C)O)[nH]c54)cc2-3)[nH]1)C(C)C	0.047

====

EC50 values for the compounds below.
System: NS5A chimeric genotype 2a JFH-1 replicon with genotype 2b MD2b-1 strain NS5A gene (M31 present)
test details: Replicon assay, genotype 2b NS5A chimera
Format: cell-based, HCV
assay setup: Hepatitis C virus, read-out: 2b (s) (nM), genotype 2b MD2b-1 NS5A chimeric replicon (M31), stably replicating replicon cells (s)

line notation	EC50
CC[C@H]1CC[C@@H](c2nc3ccc4cc5c(cc4c3[nH]2)OCc2cc(-c3cnc([C@@H]4CC[C@H](C)N4C(=O)[C@@H](NC(=O)OC)C(C)C)[nH]3)ccc2-5)N1C(=O)[C@H](NC(=O)OC)c1ccccc1	0.194 nM
COC(=O)N[C@H](C(=O)N1[C@H](c2ncc(-c3ccc4c(c3)COc3cc5c(ccc6nc([C@@H]7CC[C@H](C)N7C(=O)[C@@H](NC(=O)OC)C7CCOCC7)[nH]c65)cc3-4)[nH]2)C[C@@H]2CCC[C@@H]21)C(C)C	0.069 nM
COC(=O)N[C@H](C(=O)N1[C@@H](C)CC[C@H]1c1ncc(-c2ccc3c(c2)COc2cc4c(ccc5nc([C@@H]6CC[C@H](C)N6C(=O)[C@@H](NC(=O)OC)[C@@H](C)OC)[nH]c54)cc2-3)[nH]1)C1CCOCC1	0.054 nM
COC(=O)N[C@@H](C)C(=O)N1[C@@H](C)CC[C@H]1c1ncc(-c2ccc3c(c2)COc2cc4c(ccc5nc([C@@H]6CC[C@H](C)N6C(=O)[C@H](C)NC(=O)OC)[nH]c54)cc2-3)[nH]1	16.3 nM

====

Tested on: Q30R in genotype 1a NS5A (1a Pi-Rluc replicon, Huh-7-derived cured-51 cells)
test details: Replicon assay against resistance mutant 1a Q30R
Format: cell-based, HCV
assay setup: Hepatitis C virus, read-out: 1a Q30R
Method: Antiviral potency (EC50) was determined using a Renilla luciferase (RLuc)-based HCV replicon reporter assay. […] 72 hours later, cells were lysed and Renilla luciferase activity quantified as recommended by the manufacturer (Promega-Madison, Wis.). […]
pEC50: −log10 of the molar value.
pEC50 values for the compounds below.
endpoint label: pEC50

compound	endpoint label	measurement
COC(=O)N[C@H](C(=O)N1[C@@H](C)CC[C@H]1c1ncc(-c2ccc3c(c2)COc2cc4c(ccc5nc([C@@H]6C[C@H](COC(F)F)CN6C(=O)[C@@H](NC(=O)OC)[C@@H](C)OC)[nH]c54)cc2-3)[nH]1)C(C)C	pEC50	9.00 to 10.00
CC[C@H](C)C(NC(=O)OC)C(=O)N1[C@@H](C)CC[C@H]1c1nc2ccc3cc4c(cc3c2[nH]1)OCc1cc(-c2cnc([C@@H]3CC[C@H](C)N3C(=O)[C@@H](NC(=O)OC)[C@@H](C)OC)[nH]2)ccc1-4 (stereo partly shown)	pEC50	> 10.00
COC(=O)N[C@H](C(=O)N1[C@@H](C)CC[C@H]1c1ncc(-c2ccc3c(c2)COc2cc4c(ccc5nc([C@@H]6CC[C@H](C)N6C(=O)[C@@H](NC(=O)OC)C6CCOCC6)[nH]c54)cc2-3)[nH]1)C(C)C	pEC50	> 10.00
COC(=O)N[C@H](C(=O)N1[C@@H](C)CC[C@H]1c1ncc(-c2ccc3c(c2)COc2cc4c(ccc5nc([C@@H]6CC[C@H](C)N6C(=O)[C@@H](NC(=O)OC)[C@H](C)OC)[nH]c54)cc2-3)[nH]1)C(C)C	pEC50	9.00 to 10.00

====

System: NS5A chimeric genotype 1b Con1 replicon with genotype 3a S52 strain NS5A gene
test details: Replicon assay, genotype 3a NS5A chimera
Type: cell-based, HCV
assay setup: Hepatitis C virus, read-out: 3a (s), (s); activity range
pEC50: −log10 of the molar value.

line notation	pEC50
CC[C@H](C)[C@H](NC(=O)OC)C(=O)N1[C@@H](C)CC[C@H]1c1nc2ccc3cc4c(cc3c2[nH]1)OCc1cc(-c2cnc([C@@H]3C[C@H](COC)CN3C(=O)[C@@H](NC(=O)OC)C(C)C)[nH]2)ccc1-4	9.00 to 10.00
CCC[C@H]1CC[C@@H](c2nc3ccc4cc5c(cc4c3[nH]2)OCc2cc(-c3cnc([C@@H]4CC[C@H](C)N4C(=O)[C@@H](NC(=O)OC)C(C)C)[nH]3)ccc2-5)N1C(=O)[C@@H](NC(=O)OC)C1CCOCC1	9.00 to 10.00
[2H]C([2H])([2H])C([2H])(C([2H])([2H])[2H])[C@]([2H])(NC(=O)OC)C(=O)N1[C@@H](C)CC[C@H]1c1ncc(-c2ccc3c(c2)COc2cc4c(ccc5nc([C@@H]6CC[C@H](C)N6C(=O)[C@@]([2H])(NC(=O)OC)C([2H])(C([2H])([2H])[2H])C([2H])([2H])[2H])[nH]c54)cc2-3)[nH]1	> 10.00
COC(=O)N[C@@H](CO)C(=O)N1[C@@H](C)CC[C@H]1c1nc2ccc3cc4c(cc3c2[nH]1)OCc1cc(-c2cnc([C@@H]3CC[C@H](C)N3C(=O)[C@@H](NC(=O)OC)C(C)C)[nH]2)ccc1-4	9.00 to 10.00

====

System: stable HCV 2a JFH-1 Rluc replicon cells (L31 present in NS5A)
test details: Renilla luciferase HCV replicon reporter assay, genotype 2a JFH-1
Assay type: cell-based
assay setup: Hepatitis C virus, read-out: 2a JFH (nM), genotype 2a JFH-1 replicon (L31 in NS5A), stable cells
Method: Evaluation of Cell-Based Anti-HCV Activity: Antiviral potency (EC50) was determined using a Renilla luciferase (RLuc)-based HCV replicon reporter assay. […] 72 hours later, cells were lysed and Renilla luciferase activity quantified as recommended by the manufacturer (Promega-Madison, Wis.). […]
Doc: threshold 0.02 nM (exclusive). Items with EC50 beneath it return class 1; others return class 0.

molecule	tested system	class label
COC(=O)N[C@H](C(=O)N1[C@@H](C)CC[C@H]1c1nc2ccc3cc4c(cc3c2[nH]1)OCc1cc(-c2cnc([C@@H]3[C@@H]5C[C@@H]5CN3C(=O)[C@@H](NC(=O)OC)C3CCOCC3)[nH]2)ccc1-4)C(C)C [HO]	stable HCV 2a JFH-1 Rluc replicon cells (L31 present in NS5A)	class 0
CCC[C@H]1CC[C@@H](c2nc3ccc4cc5c(cc4c3[nH]2)OCc2cc(-c3cnc([C@@H]4CC[C@H](C)N4C(=O)[C@@H](NC(=O)OC)C(C)C)[nH]3)ccc2-5)N1C(=O)[C@@H](NC(=O)OC)C1CCOCC1 [IV]	stable HCV 2a JFH-1 Rluc replicon cells (L31 present in NS5A)	class 0
COC(=O)N[C@H](C(=O)N1[C@@H](C)CC[C@H]1c1ncc(-c2ccc3c(c2)COc2cc4c(ccc5nc([C@@H]6C[C@@H]7CCC[C@@H]7N6C(=O)[C@@H](NC(=O)OC)C6CCOCC6)[nH]c54)cc2-3)[nH]1)C(C)C [IA]	stable HCV 2a JFH-1 Rluc replicon cells (L31 present in NS5A)	class 0
CC[C@H](C)[C@H](NC(=O)OC)C(=O)N1C[C@@H](COC)C[C@H]1c1nc2ccc3cc4c(cc3c2[nH]1)OCc1cc(-c2cnc([C@@H]3CC[C@H](C)N3C(=O)[C@@H](NC(=O)OC)[C@@H](C)OC)[nH]2)ccc1-4 [ED]	stable HCV 2a JFH-1 Rluc replicon cells (L31 present in NS5A)	class 1
CC[C@H](C)[C@H](NC(=O)OC)C(=O)N1[C@@H](C)CC[C@H]1c1nc2ccc3cc4c(cc3c2[nH]1)OCc1cc(-c2cnc([C@@H]3CC[C@H](C)N3C(=O)[C@@H](NC(=O)OC)C(C)C)[nH]2)ccc1-4 [GM]	stable HCV 2a JFH-1 Rluc replicon cells (L31 present in NS5A)	class 1
CC[C@H]1CC[C@@H](c2ncc(-c3ccc4c(c3)COc3cc5c(ccc6nc([C@@H]7CC[C@H](C)N7C(=O)[C@@H](NC(=O)OC)[C@@H](C)OC)[nH]c65)cc3-4)[nH]2)N1C(=O)[C@@H](NC(=O)OC)C1CCOCC1 [HY]	stable HCV 2a JFH-1 Rluc replicon cells (L31 present in NS5A)	class 1
COC(=O)N[C@H](C(=O)N1[C@@H](C)CC[C@H]1c1ncc(-c2ccc3c(c2)COc2cc4c(ccc5nc([C@@H]6CC[C@H](C)N6C(=O)[C@@H](NC(=O)OC)[C@H](C)OC)[nH]c54)cc2-3)[nH]1)[C@H](C)OC [GE]	stable HCV 2a JFH-1 Rluc replicon cells (L31 present in NS5A)	class 0
COC(=O)N[C@H](C(=O)N1C[C@@H](C)C[C@H]1c1nc2ccc3cc4c(cc3c2[nH]1)OCc1cc(-c2cnc([C@@H]3CC[C@H](C)N3C(=O)[C@@H](NC(=O)OC)[C@@H](C)OC)[nH]2)ccc1-4)C(C)C [GA]	stable HCV 2a JFH-1 Rluc replicon cells (L31 present in NS5A)	class 1
COC[C@H]1C[C@@H](c2nc(Cl)c(-c3ccc4c(c3)COc3cc5c(ccc6nc([C@@H]7CC[C@H](C)N7C(=O)[C@@H](NC(=O)OC)C(C)C)[nH]c65)cc3-4)[nH]2)N(C(=O)[C@H](NC(=O)OC)c2ccccc2)C1 [FY]	stable HCV 2a JFH-1 Rluc replicon cells (L31 present in NS5A)	class 1
